Can you tell me self-cleavage for the items I'm about to list?
B1: HDV Ribozyme (parent)
chain: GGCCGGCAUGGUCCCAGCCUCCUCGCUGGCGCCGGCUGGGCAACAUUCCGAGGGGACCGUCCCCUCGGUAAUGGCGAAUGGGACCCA

- Variants of: B1
- TEST METHOD NOTES: self-cleavage, relative activity (ratio to wild type); higher = more cleavage; co-transcriptional

Worked examples, 5 variants total:
C21U U37G : 0.0875
C15G C18G : 0.0594
G40C U60C : 0.332
G5A G39C : 0.119
C33A G73A : 0.147

Lab note: each variant below needs its self-cleavage filled in.
1. G35A G54U
2. C15U C22A
3. A78G C86U
4. G29C C41U
5. G31C C84A
6. U20C G82U

Output:
[0.743, 0.113, 0.643, 0.0297, 0.443, 0.0449]
